test system: HOP-92 NSCLC; experiment: NCI-60 one-dose screen, 48 h; settings: 10 µM unless noted
About 83,000 compounds went through this panel and 20% of them were active in at least one assay; those are over-represented in the sample as a whole. Active and inactive are the calls of the source. How the source made its calls: active means growth percent below 10; inactive means the rest.
Labels: 1 (active), -1 (inactive)

| Molecule | Discrete Label |
| --- | --- |
| O=C(/C=C/c1cccc([N+](=O)[O-])c1)c1ccc(O)c(CN2CCN(c3cc4c(cc3F)c(=O)c(C(=O)O)cn4C3CC3)CC2)c1 | -1 |
| O=C(Cn1cccc(Nc2ccccc2)c1=O)Nc1ccccc1 | -1 |
| O=c1cc(/C(=C2/C=CC=N2)c2ccc[nH]2)c2cc(Cl)ccc2o1 | -1 |
| Cc1cc(N2CCSCC2)nc(NC2CCCC(Nc3ccnc4cc(Cl)ccc34)C2)n1 (configuration not stated) | 1 |
| CC1=C[C@H]2c3c(c(O)c(O)c4oc5ccccc5c(=O)c34)[C@H](c3cc(O)c(O)c4oc5ccccc5c(=O)c34)[C@H]2C(C)(C)C1 | 1 |
| Fc1ccc2[nH]cc(SSc3c[nH]c4ccc(F)cc34)c2c1 | 1 |
| O=C1CC[C@H](c2ccc(O)c3c2C(=O)[C@@H]2O[C@@H]2C3=O)c2cccc(O)c21 | -1 |
| COc1cc(-c2nn(-c3ccc(Br)cc3)cc2C(=O)O)ccc1O | -1 |
| CN1CCN=C1c1ccc(NC(=O)c2ccc(C(=O)Nc3ccc(C4=NCCN4C)cc3)cc2)cc1 | -1 |
| CCN(CC)c1ccc2c(c1)Oc1nc(N)c(C#N)c(N)c1C2Sc1ccc(SC)cc1 (configuration not stated) | 1 |
| O=C1c2cc3c(cc2-c2c1c1ccc(F)cc1c(=O)n2CCCNCCO)OCO3 | 1 |
| CCNC(=O)Oc1ccc(/C(=C(\C)c2ccc(Cl)cc2)c2ccc(OCCN(CC)CC)cc2)cc1 | -1 |
| NNCCc1ccc(NC(=O)CCCc2ccc(/C=C/C(=O)NO)cc2)cc1 | -1 |
| CCCCn1c(-c2ccc(C(=O)O/N=C(\N)c3ccc4ccccc4c3)cc2)nc(-c2ccccc2)c1-c1ccccc1 | -1 |
| O=C1/C(=C/c2ccc(OCCCOc3ccc(Cl)cc3)cc2)N=C2SCCCN12 | -1 |
| CC(C)(C)CC(C)(C)c1ccc(OCCOCC[N+](C)(C)Cc2ccccc2)cc1 | 1 |
| Cc1ccc(OC(=O)c2ccc(Cl)cc2)cc1 | -1 |
| CC1=C[C@H]2c3c(c(O)c(O)c4oc(-c5ccccc5)cc(=O)c34)[C@H](c3cc(O)c(O)c4oc(-c5ccccc5)cc(=O)c34)[C@H]2C(C)(C)C1 | 1 |
| N#CCCN=Nc1c(O)[nH]c2ccc(F)cc12 | -1 |
| Nc1ccc(S(=O)(=O)O)c2ccc(N=Nc3ccc(N=Nc4ccc(S(=O)(=O)O)cc4)c4ccccc34)c(O)c12 | -1 |
| COc1cc(-c2nc3cc(Cl)c(Cl)cc3[nH]2)ccc1OCC(=O)N=Nc1c(O)[nH]c2ccccc12 | 1 |
| COc1cc2nc(N3CCCC3)nc(NCc3ccccc3)c2cc1OC | -1 |
| CS(=O)(=O)c1ccc(-n2nc(-c3ccc(Br)cc3)c3ccccc3c2=O)cc1 | -1 |
| CN1CCN(c2nc(NCCCCNc3ccnc4cc(Cl)ccc34)c3ccccc3n2)CC1 | -1 |
| Cc1cc(N2CCN(c3ccnc4cc(Cl)ccc34)CC2)nc(NC2CCCCC2)n1 | -1 |
| Cc1cc(N2CCN(c3ccnc4cc(Cl)ccc34)CC2)nc(N2CCOCC2)n1 | -1 |
| COc1cccc(/C=N/NC(=O)c2ccccc2Nc2ccnc(C(F)(F)F)c2)c1O | -1 |
